FYI, the data here is from paper PMC5540273.

tested on: MARK4; details: concentration: 1 μM, replicates: in singlicate; n = 1;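 further: KINOMEscan kinase panel screen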
Reported %Inh values follow for various compounds
State just the number; it will be interpreted in %.

Return %Inh for the following compound: O=c1cc(N2CCOCC2)nc2n(Cc3cccc(Cl)c3Cl)c(C3CC3)nn12 [GSK2358994]
4

Return %Inh for the following compound: Cc1ccc(C(=O)NCC(N)=O)cc1-n1c(C)cc(OCc2ccc(F)cc2F)c(Br)c1=O
16

Return %Inh for the following compound: Cc1cn2c(=O)cc(N3CCOCC3)nc2n1Cc1cccc(Cl)c1Cl [GSK2334006]
0

----------
Reported %Inh values follow for various compounds
system: BIKE; construct: gene BMP2K; details: concentration: 1 μM, replicates: in singlicate; n = 1
State just the number; it will be interpreted in %.

Worked examples, 6 compounds total:
1. Cc1c(Cn2c(C)nn3c(=O)cc(N4CCOC(C)C4)nc23)cccc1C(F)(F)F (stereo not shown) [GSK2344444]	16
2. NS(=O)(=O)c1cccc(-c2ccc3nccc(-c4cccc(S(N)(=O)=O)c4)c3c2)c1 [GW867253]	0
3. CN1c2ccc(CNc3ccc(F)cc3)cc2-c2c(cnn2C)S1(=O)=O	0
4. N#Cc1ccc(-c2cc(-c3c[nH]nc3-c3ccccn3)ccn2)cc1 [GW693028]	11
5. Fc1ccc(-c2ncn(CCCN3CCOCC3)c2-c2cccnc2)cc1 [SB-211743]	0
6. Cc1cccc(-c2nc(-c3ccc(S(C)(=O)=O)cc3)sc2-c2ccncc2)c1	0

Continue with the compound presented below.
Return %Inh for the following compound: O=C(NCCNc1ccnc(Nc2ccc(F)cc2)n1)Nc1ccccc1F [GSK1379880]
0

----------
tested on: SGK; settings: concentration: 1 μM, replicates: in singlicate; n = 1
MEASURED METRIC: %Inh (%)
State just the number; it will be interpreted in %.

Return %Inh for the following compound: COc1cc2ncn(-c3cc(OCc4sccc4Cl)c(C(N)=O)s3)c2cc1OC
0

Return %Inh for the following compound: CCc1nc(-c2cccc(C)c2)c(-c2ccnc(NCc3ccccc3)c2)s1
2

Return %Inh for the following compound: O=C1Cc2cc(Nc3nc(NCc4cccc(S(=O)(=O)C(F)(F)F)c4)ncc3C(F)(F)F)ccc2N1
10

Return %Inh for the following compound: c1ccc(-c2n[nH]cc2-c2ccnc3ccccc23)nc1
0

Return %Inh for the following compound: CC(C)(C)n1cnc2c(N)ncnc21
0

----------
tested on: FLT3; conditions: concentration: 1 μM, replicates: in singlicate; n = 1
MEASURED METRIC: %Inh (%)
State just the number; it will be interpreted in %.

Worked examples, 7 compounds total:
1. CC(=O)Nc1ccc(COc2ccc(Nc3ccnc4cc(-c5ccccn5)ccc34)cc2)cc1.Cl [GW440148]	98
2. CN(C(=O)c1ccc(-c2cc(-c3c[nH]nc3-c3ccccn3)ccn2)cc1)C1CCOCC1 [GW810083]	8
3. c1ccc(-c2n[nH]cc2-c2ccnc3ccccc23)nc1 [GW271431]	3
4. O=C(NCCNc1ccnc(Nc2ccc(F)cc2)n1)Nc1ccccc1F [GSK1379880]	0
5. Nc1nc(-c2ccc3c(N)n[nH]c3c2)cc(N2CCCC2)n1 [GSK2227430]	0
6. O=C(NCCCN1CCOCC1)c1cccc(Nc2nccc(Nc3ccc(Oc4ccccc4)cc3)n2)c1 [GW663929]	90.7
7. Cc1nnc(-c2ccc3occ(-c4ccc(C(C)O)cc4)c3c2)o1 (centres unmarked)	0

Return %Inh for the following compound: N#Cc1c(N2CCOCC2)sc(-c2ccn[nH]2)c1-c1ccc(Cl)cc1
0
